Data origin: patent US11214614B2

# Test system: proTGFβ1 presented by endogenous LTBP1/3 in LN229 cells
# Sequence (P01137 30-390): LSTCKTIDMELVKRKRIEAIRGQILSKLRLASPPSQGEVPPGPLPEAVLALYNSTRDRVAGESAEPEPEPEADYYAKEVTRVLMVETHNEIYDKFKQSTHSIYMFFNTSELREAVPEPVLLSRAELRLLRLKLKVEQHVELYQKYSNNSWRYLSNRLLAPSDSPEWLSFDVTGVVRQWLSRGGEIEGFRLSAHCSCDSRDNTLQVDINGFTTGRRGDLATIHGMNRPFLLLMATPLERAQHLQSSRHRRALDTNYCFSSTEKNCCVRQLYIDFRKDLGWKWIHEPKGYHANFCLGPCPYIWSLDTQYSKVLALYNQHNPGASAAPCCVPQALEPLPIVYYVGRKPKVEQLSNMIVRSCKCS
# Test method notes: Endogenous LTBP caga assay: LN229 cells transfected with human proTGFβ1 only, CAGA12 luciferase reporter cells
# Assay type: cell-based
# Applied conditions: Table 20: protocol of Example 10 with Fabs (RefAb also as hIgG4), assay format not stated
Reported property: IC50

Query: Which measured IC50 value corresponds to SR-AB42 Fab (antibody, V domains shown) VH: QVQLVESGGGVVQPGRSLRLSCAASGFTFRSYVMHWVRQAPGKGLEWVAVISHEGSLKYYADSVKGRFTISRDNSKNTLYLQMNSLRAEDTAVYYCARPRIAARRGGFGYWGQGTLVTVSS VL: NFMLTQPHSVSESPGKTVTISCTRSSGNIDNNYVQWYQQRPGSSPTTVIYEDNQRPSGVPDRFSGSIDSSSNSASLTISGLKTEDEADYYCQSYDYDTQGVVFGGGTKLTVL ?
Response: 0.667 nM

Query: Thanks! And SR-AB47 Fab (antibody, V domains shown) VH: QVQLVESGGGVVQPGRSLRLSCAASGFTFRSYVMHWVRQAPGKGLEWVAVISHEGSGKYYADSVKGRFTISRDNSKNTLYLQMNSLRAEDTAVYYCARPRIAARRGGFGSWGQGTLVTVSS VL: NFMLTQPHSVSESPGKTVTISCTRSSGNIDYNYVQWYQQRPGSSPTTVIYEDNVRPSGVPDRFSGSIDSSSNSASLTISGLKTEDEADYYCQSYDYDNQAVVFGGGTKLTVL ?
Response: 0.186 nM
